- TESTED_SYSTEM: Human PI3K beta (Homo sapiens)
- Construct: His (N); host or cells: SF9 insect cells (baculovirus)
- EXPERIMENTAL_PROTOCOL: Human PI3K beta enzyme assay (HTRF)
- Format: biochemical
- RECORDED_CONDITIONS: concentration not given; b1387 states 1.1 μM for PI3K α and β; read-out: p110 beta Percent Inhibition
ATTRIBUTE_MEASURED: inhibition at 1.1 µM (%)

What does the record list as inhibition at 1.1 µM for CC(=O)Nc1cc(-c2cc(C(c3ccc(Cl)cc3)N3CCC(CN)C3)c(-c3nnc[nH]3)s2)ccn1 (stereo not drawn) ? 100

And the next one, N#Cc1c(N2CCOCC2)sc(C(=O)O)c1C(CCO)c1ccc2ccccc2c1 (stereo not drawn) ? 117

Cool, now CC(=O)Nc1cc(-c2sc(-c3nnc[nH]3)c(Sc3ccc(Cl)cc3)c2C#N)ccn1 82

Likewise for CC(=O)Nc1cc(-c2sc(-c3nnc[nH]3)c(C(c3ccc(Cl)cc3)N3CCNCC3)c2C#N)ccn1 (stereo not drawn) ? 102

Then CC(c1ccc2ccccc2c1)c1c(C(=O)O)sc(N2CCOCC2)c1C#N (stereo not drawn) ? 95

# repeat for OC(c1cnc2ccccc2n1)c1cc(-c2ccncc2)sc1-c1nnc[nH]1 (stereo not drawn) 105

// query: COc1cc(C(O)c2cc(-c3ccnc(Cl)c3)sc2-c2nnc[nH]2)c(F)cc1Cl (stereo not drawn) 98

Would you mind doing CC(c1ccc2ccccc2c1)c1nc(N2CCOCC2)sc1C(=O)O (stereo not drawn) as well? 98

Next entry: CC(=O)Nc1cc(-c2cc(C(OCC3CNC3)c3ccc(Cl)cc3)c(-c3nnc[nH]3)s2)ccn1 (stereo not drawn) 100

====

- TESTED_SYSTEM: Human PI3K gamma (Homo sapiens, UniProt P48736)
- Construct: His (N); host or cells: SF9 insect cells (baculovirus)
- Sequence (P48736 whole entry): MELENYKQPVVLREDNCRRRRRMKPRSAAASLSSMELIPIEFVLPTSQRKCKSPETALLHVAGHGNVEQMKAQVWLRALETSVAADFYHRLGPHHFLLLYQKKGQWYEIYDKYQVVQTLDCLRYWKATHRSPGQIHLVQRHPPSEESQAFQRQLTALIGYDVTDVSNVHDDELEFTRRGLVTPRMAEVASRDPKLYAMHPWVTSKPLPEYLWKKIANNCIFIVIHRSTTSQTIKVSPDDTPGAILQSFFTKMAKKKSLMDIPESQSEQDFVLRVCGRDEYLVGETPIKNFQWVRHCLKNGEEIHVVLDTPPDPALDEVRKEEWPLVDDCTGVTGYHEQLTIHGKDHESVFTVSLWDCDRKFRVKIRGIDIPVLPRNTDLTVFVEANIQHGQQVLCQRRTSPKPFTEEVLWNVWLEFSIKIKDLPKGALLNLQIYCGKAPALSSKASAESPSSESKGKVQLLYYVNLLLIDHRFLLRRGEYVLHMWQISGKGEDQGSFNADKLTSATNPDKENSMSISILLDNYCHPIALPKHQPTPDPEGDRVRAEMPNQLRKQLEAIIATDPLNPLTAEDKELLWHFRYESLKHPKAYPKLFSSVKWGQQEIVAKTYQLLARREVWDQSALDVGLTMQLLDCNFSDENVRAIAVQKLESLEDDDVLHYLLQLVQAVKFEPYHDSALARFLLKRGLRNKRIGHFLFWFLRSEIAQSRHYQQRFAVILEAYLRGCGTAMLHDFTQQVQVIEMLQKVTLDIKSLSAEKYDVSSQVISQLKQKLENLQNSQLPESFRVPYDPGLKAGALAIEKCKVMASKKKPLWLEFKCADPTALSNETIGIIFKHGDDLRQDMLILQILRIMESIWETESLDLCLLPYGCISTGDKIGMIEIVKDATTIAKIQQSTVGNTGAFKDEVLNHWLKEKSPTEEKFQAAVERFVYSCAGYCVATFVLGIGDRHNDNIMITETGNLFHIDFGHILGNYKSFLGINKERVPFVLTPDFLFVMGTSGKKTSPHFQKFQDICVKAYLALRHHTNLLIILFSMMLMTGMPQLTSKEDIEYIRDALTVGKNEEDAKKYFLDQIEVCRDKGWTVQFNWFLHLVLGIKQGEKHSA
- EXPERIMENTAL_PROTOCOL: Human PI3K gamma enzyme assay (HTRF)
- Assay type: biochemical
- RECORDED_CONDITIONS: concentration not given; b1389 states 1.0 μM for PI3K δ and γ
ATTRIBUTE_MEASURED: p110 gamma Percent Inhibition (%)

Which measured p110 gamma Percent Inhibition value corresponds to CC(c1ccc2cc(F)ccc2c1)c1c(C(=O)O)sc(N2CCOCC2)c1C#N (stereo not drawn) ? 65

// next record COc1cc(C(O)c2cc(-c3ccnnc3)sc2-c2nnc[nH]2)c(F)cc1Cl (stereo not drawn) [Compound 168] 58

And what about the compound N#Cc1c(N2CCOCC2)sc(C(=O)O)c1C(CCF)c1ccc2ccccc2c1 (stereo not drawn) [Compound 365] ? 63

Repeat for the following compound: c1ccc2cc(Cc3nc(N4CCOCC4)sc3-c3nnn[nH]3)ccc2c1 49

Please do the same for OC(c1cc(-c2ccncc2)sc1-c1nnc[nH]1)c1c(F)ccc2ccccc12 (stereo not drawn) [Compound 281] as well. 56

What do you get for COc1cc(C(O)c2cc(-c3ccnc(Cl)c3)sc2-c2nnc[nH]2)c(F)cc1Cl (stereo not drawn) [Compound 149] ? 75

CC(c1ccc(Cl)c(Cl)c1)c1c(C(=O)O)sc(N2CCOCC2)c1C#N (stereo not drawn) ? 77

(P) OC(c1cc2ccccc2cc1F)c1cc(-c2ccncc2)sc1-c1nnc[nH]1 (stereo not drawn)
(Q) CC(=O)Nc1cc(-c2cc(C(c3ccc(Cl)cc3)N3CC(N(C)C)C3)c(-c3nnc[nH]3)s2)ccn1 (stereo not drawn)
For P and Q , which recorded p110 gamma Percent Inhibition is lower? Please reply using the label of the selected record. Q
(Q: 35%, P: 66%)

====

- TESTED_SYSTEM: Human PI3K beta (Homo sapiens, UniProt P42338)
- Construct: His (N); host or cells: SF9 insect cells (baculovirus)
- Sequence (P42338 whole entry, one chain of several): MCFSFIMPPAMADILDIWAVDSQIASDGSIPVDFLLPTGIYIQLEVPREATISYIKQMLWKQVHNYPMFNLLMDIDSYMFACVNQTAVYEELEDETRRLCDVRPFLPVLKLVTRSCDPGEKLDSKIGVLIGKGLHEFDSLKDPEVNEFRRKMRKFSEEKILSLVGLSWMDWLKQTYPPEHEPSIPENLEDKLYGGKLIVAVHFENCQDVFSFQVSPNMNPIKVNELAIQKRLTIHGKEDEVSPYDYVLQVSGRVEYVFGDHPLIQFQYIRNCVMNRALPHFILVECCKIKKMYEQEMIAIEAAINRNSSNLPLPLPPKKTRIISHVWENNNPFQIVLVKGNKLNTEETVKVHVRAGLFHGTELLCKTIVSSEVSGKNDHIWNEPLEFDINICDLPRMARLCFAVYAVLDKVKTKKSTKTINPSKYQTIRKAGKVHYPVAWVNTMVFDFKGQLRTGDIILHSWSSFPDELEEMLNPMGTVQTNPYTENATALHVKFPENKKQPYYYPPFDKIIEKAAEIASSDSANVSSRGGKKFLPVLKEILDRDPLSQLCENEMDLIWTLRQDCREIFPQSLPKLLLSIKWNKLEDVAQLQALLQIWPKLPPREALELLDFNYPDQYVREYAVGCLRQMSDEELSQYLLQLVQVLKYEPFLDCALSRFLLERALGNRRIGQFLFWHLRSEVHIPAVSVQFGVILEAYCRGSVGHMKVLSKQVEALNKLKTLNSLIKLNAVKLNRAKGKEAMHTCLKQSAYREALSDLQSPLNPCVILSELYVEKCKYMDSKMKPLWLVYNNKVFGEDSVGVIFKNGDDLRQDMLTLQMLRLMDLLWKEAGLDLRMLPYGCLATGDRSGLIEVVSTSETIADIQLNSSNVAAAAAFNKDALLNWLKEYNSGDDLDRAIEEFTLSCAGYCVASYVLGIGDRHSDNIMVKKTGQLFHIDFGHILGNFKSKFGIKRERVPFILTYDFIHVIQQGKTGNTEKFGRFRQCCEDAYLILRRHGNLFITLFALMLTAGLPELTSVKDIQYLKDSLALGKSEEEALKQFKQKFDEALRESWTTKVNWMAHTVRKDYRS
- EXPERIMENTAL_PROTOCOL: Human PI3K beta enzyme assay (HTRF)
- Assay type: biochemical
- RECORDED_CONDITIONS: concentration not given; b1387 states 1.1 μM for PI3K α and β; read-out: p110 beta Percent Inhibition
ATTRIBUTE_MEASURED: inhibition at 1.1 µM (%)

# input compound: CC(=O)Nc1cc(-c2cc(C(c3ccc(Cl)cc3)N3CC[C@H](O)C3)c(-c3nnc[nH]3)s2)ccn1 (some centres unmarked) ; wanted: its inhibition at 1.1 µM 107

// next record O=C(O)c1sc(N2CCOCC2)nc1Cc1cc(F)c2ccccc2c1 110

One more compound: O=C(O)c1sc(N2CCOCC2)nc1Cc1ccc2ccccc2c1F 105

Continue with Cc1ccc(F)c(C(O)c2cc(-c3ccncc3)sc2-c2nnc[nH]2)c1 (centres unmarked) 94

Another compound: CN[C@@H]1CCN(C(c2ccc(Cl)cc2)c2cc(-c3ccnc(NC(C)=O)c3)sc2-c2nnc[nH]2)C1 (some centres unmarked) 107

====

- TESTED_SYSTEM: Human PI3K alpha (Homo sapiens)
- Construct: His (N); host or cells: SF9 insect cells (baculovirus)
- Sequence (P42336 whole entry): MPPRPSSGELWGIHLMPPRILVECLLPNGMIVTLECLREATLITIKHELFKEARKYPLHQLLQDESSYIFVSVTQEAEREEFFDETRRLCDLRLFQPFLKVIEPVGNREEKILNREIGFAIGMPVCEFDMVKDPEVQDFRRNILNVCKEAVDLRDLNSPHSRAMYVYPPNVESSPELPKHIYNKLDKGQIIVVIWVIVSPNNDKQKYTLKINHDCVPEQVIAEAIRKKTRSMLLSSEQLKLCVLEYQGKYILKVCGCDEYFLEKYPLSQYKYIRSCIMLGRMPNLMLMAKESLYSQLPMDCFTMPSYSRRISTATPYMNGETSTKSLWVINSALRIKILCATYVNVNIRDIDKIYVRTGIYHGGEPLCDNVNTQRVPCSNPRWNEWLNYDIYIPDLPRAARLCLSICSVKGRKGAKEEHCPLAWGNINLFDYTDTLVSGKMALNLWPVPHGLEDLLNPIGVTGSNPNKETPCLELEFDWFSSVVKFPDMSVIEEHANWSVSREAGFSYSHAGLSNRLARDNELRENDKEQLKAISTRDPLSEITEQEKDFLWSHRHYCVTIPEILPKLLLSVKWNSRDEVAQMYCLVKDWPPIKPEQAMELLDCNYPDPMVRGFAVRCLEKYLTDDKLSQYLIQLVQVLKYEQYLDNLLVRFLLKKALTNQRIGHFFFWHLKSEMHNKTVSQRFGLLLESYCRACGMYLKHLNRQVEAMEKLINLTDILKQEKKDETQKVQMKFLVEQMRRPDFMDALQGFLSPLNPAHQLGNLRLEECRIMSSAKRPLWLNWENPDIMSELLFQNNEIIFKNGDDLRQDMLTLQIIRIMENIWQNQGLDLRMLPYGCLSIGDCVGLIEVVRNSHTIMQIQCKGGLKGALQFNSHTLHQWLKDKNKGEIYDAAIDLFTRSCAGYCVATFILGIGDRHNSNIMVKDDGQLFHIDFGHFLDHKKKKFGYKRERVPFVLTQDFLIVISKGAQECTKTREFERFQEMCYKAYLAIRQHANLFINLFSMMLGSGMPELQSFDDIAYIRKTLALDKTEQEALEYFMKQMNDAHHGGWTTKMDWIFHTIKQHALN
- Sequence (P27986 whole entry partner): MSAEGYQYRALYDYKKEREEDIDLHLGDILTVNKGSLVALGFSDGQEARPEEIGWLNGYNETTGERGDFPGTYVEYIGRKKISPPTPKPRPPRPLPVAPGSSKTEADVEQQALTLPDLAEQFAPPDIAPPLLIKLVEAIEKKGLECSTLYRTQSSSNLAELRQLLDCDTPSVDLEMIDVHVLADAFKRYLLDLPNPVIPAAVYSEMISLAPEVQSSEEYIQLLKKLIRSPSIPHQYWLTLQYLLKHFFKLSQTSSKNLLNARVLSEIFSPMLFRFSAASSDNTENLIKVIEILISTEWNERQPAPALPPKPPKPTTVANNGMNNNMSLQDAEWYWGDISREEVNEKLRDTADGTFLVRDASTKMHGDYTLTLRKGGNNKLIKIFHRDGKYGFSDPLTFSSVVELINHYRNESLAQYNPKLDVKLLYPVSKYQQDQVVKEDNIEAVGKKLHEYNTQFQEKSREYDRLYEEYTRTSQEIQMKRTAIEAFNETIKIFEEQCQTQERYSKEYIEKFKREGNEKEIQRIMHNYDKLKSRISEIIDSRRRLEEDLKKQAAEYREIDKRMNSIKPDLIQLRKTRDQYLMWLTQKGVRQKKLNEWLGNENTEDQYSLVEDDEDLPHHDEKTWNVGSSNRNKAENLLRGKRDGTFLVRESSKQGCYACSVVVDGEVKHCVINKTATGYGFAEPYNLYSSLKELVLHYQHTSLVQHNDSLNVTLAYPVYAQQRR
- EXPERIMENTAL_PROTOCOL: Human PI3K alpha enzyme assay (HTRF)
- Format: biochemical
- RECORDED_CONDITIONS: concentration not given; b1387 states 1.1 μM for PI3K α and β; read-out: p110 alpha Percent Inhibition
ATTRIBUTE_MEASURED: inhibition at 1.1 µM (%)

Answered cases to consult:
State the recorded inhibition at 1.1 µM for this entry: O=C(O)c1sc(N2CCOCC2)nc1Cc1ccc2c(F)cccc2c1 [Compound 340] 48

Item: OC(c1ccc(-c2cccnc2)cc1)c1cc(-c2ccncc2)sc1-c1nnc[nH]1 (centres unmarked) [Compound 214] 46

For CC(=O)Nc1cc(-c2cc(C(c3ccc(Cl)cc3)N3CCN(C(C)=O)CC3)c(-c3nnc[nH]3)s2)ccn1 (centres unmarked) [Compound 196] then? 69

Next molecule up: OC(c1ccc(Br)o1)c1cc(-c2ccncc2)sc1-c1nnc[nH]1 (centres unmarked) [Compound 260] 37

One more molecule: COc1ccc2cc(Cc3nc(N4CCOCC4)sc3C(=O)O)ccc2c1 [Compound 288] 14

(A) OC(c1ccc2ccccc2c1)c1cc(-c2ccncc2)sc1-c1nnc[nH]1 (centres unmarked) [Compound 280]
(B) COC(=O)Nc1cc(-c2sc(-c3nnc[nH]3)c(C(O)c3ccc(Cl)cc3)c2C#N)ccn1 (centres unmarked) [Compound 195]
Form: Entry with minimum inhibition at 1.1 µM (choose one): A / B Give the label under which the chosen entry appears. A

(A) CC(=O)Nc1cc(-c2cc(C(c3ccc(Cl)cc3)n3cccn3)c(-c3nnc[nH]3)s2)ccn1 (centres unmarked) [Compound 206]
(B) O=C(O)c1sc(N2CCOCC2)c(F)c1Cc1ccc(Cl)c(Cl)c1 [Compound 320]
(C) O=C(O)c1sc(N2CCOCC2)nc1Cc1cc2ccccc2o1 [Compound 341]
(D) CC(=O)Nc1cc(-c2cc(/C(=C/CCN(C)C)c3ccc(Cl)cc3)c(-c3nnc[nH]3)s2)ccn1 [Compound 225]
(E) O=C(NO)c1sc(N2CCOCC2)nc1Cc1ccc(Cl)c(Cl)c1 [Compound 298]
Your job: order these 5 records by inhibition at 1.1 µM, ascending. Sort and list the labels as requested. E, B, C, D, A

====

- TESTED_SYSTEM: Human PI3K beta (Homo sapiens)
- Construct: His (N); host or cells: SF9 insect cells (baculovirus)
- EXPERIMENTAL_PROTOCOL: Human PI3K beta enzyme assay (HTRF)
- Type: biochemical
- RECORDED_CONDITIONS: concentration not given; b1387 states 1.1 μM for PI3K α and β; read-out: p110 beta Percent Inhibition
ATTRIBUTE_MEASURED: inhibition at 1.1 µM (%)

(A) COc1ccc(C(O)c2cc(-c3ccncc3)sc2-c2nnc[nH]2)cc1Cl (stereo not shown)
(B) Cc1cc(-c2cc(C(c3ccc(Cl)cc3)N(C)C)c(-c3nnc[nH]3)s2)ccn1 (stereo not shown)
For the two items A and B , which reports the higher inhibition at 1.1 µM value? Write down the label attached to your selection. A

(P) OC(c1ccc(Cl)cc1)c1cc(-c2ccnc(Nc3ncco3)c2)sc1-c1nnc[nH]1 (stereo not shown)
(Q) OC(c1ccc(C(F)(F)F)cc1)c1cc(-c2ccncc2)sc1-c1nnc[nH]1 (stereo not shown)
Select one: P or Q . Criterion: greater recorded inhibition at 1.1 µM. Your choice should be expressed through its label. P
(P: 96%, Q: 67%)

(A) COc1ccc2ccc(Cc3c(C(=O)O)sc(N4CCOCC4)c3C#N)cc2c1
(B) COc1ccc(C(O)c2cc(-c3ccncc3)sc2-c2nnc[nH]2)cc1F (stereo not shown)
Between the two listed entries A and B , which has its inhibition at 1.1 µM at the higher number? Refer to your chosen item by its label in the answer. A

====

# IC50 per record follows
- TESTED_SYSTEM: Human PI3K beta (Homo sapiens, UniProt P42338)

What IC50 value was documented for this molecule, OC(c1ccc(Cl)cc1)c1cc(-c2ccncc2)sc1-c1nnc[nH]1 (stereo not drawn) ? < 100 nM

Item: CN(C)[C@@H](c1ccc(Cl)cc1)c1cc(-c2ccncc2)sc1-c1nnc[nH]1 < 100 nM

Then what about the molecule Cc1nn2ccc(CN)cc2c1-c1nc(Cc2ccc(Cl)cc2)c(-c2nnc[nH]2)s1 ? 100 to 1000 nM
